Target: T1, human CD19 protein with a biotinylated AviTag (Acrobiosystems) (human, UniProt P15391 20-291, biotinylated AviTag)
T1 construct: Captured on streptavidin-coated microplate wells; also called biotinylated-AviTag-CD19; hCD19; not shown: AviTag
T1 sequence (looked up): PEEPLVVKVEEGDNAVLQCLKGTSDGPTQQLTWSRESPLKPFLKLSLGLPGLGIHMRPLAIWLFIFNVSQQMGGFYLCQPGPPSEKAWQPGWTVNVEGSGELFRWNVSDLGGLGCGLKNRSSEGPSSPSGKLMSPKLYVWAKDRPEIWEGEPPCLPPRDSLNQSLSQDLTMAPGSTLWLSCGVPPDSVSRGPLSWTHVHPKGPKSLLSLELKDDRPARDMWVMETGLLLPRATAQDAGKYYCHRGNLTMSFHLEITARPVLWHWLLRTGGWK
Experiment: phage ELISA, biotinylated AviTag CD19 on streptavidin wells; signal ratio to FMC63 standard
Below, each entry is listed with its recorded ELISA hCD19 (ratio FMC63).

- binder: "scFv 29 (scFv, Canine scFv (VL-linker-VH); also called P3-51) scFv: QSVLNQPPSVSVSLGQTATISCSGESLNKYYTQWFQQKAGQAPVLVIYKDTERPSGIPDRFSGSSSGNTHTLTISGARAEDEADYYCESVDSTDTYVFGSGTQLTILGGGSSRSSSSGGGGSGGGGEVHLVESGGDLVKPGGSLRLSCVGSGFTFSSYWMSWVRQAPGKGLQWIADISDSGSSTDYADAVKGRFTISRDNAKNTLYLQMNSLRAEDTAMYYCARGLGMDYWGHGTSLFVSSASTTAPSVTSGQAGQHHHHHHGAYPYDVPDYAS"
  meas value: "0.83 ratio to FMC63"

Recorded ELISA hCD19 (ratio FMC63) (binder scFv 4 (scFv, Canine scFv (VL-linker-VH); also called scFv_04; P3-06) scFv: QSVLNQPPSVSGALGQTVTISCSGSHTNIGSGFDVQWYQQLPGKSPQTIIYANINRPSGVPARFSGSKSGSTATLTITGVQAEDEADYYCQSYDDNFDYVFGSGTQLTVLGGGSSRSSSSGGGGSGGGGEEQLVEFGGDLVKPGGSLRLSCVVSGFDFSRYGMSWVRQSPGKGLQWVADISYRGTTFYADDVKGRFTVSRDSAKNTLYLEMTSLTVEDTAVYYCANSANWYVSPFDHWGQGTLVTVSSASTTAPSVTSGQAGQHHHHHHGAYPYDVPDYAS ): 0.77 ratio to FMC63

Reference for the values: patent US20240358834A1
